# GI50 per record follows
- Test system: HCT-15
Give the value, in units of µM, as a plain number.

Measured GI50, `O=C(Nc1ccccc1[N+](=O)[O-])/C(=N/Nc1cccc(Cl)c1)c1c(O)c2ccccc2oc1=O` : 58.1

Measured GI50, Cc1ccc(-c2cc(-c3ccco3)c(C#N)c(=O)n2C2OC(CO)C(O)C(O)C2O)cc1 (stereo not given) : 83.6

----------
- Tested on: MCF7
- Test: NCI tumour cell line growth inhibition, 48 h
Activity calls are given as the source filed them. Cut-off read from the data, not from the text of the source: active = GI50 up to about 1.1 µM and inactive = higher.
Outcome (select one): y for active, n for inactive

Request: Would you mind telling me which call this test gave COC(=O)C(Cc1ccccc1)NP(=O)(O)OCC1OC(n2cc(I)c(=O)[nH]c2=O)CC1O (centres undefined) ?
Result: n

New cases:
Request: Would you mind telling me which call this test gave `COc1ccc2nccc(NCCCN3CCN(CCCNc4ccnc5ccc(OC)cc45)CC3)c2c1` ?
Result: y

Request: Would you mind telling me which call this test gave `Cc1nc(-n2nc(-c3ccccc3)cc2-c2ccccc2)sc1C(/C=C\c1ccc([N+](=O)[O-])cc1)=N/NC(=S)NN` ?
Result: n

Request: Would you mind telling me which call this test gave `CN(C)c1ccc(C(=NNC(=O)c2cc3ccccc3[nH]2)c2ccc(N(C)C)cc2)cc1` ?
Result: y
